Recorded values, source ChEMBL document CHEMBL1157649.

- Test system: HSC-4
- testProtocol: Cytotoxicity against human HSC4 cells after 24 hrs
- Assay type: functional
- experimentalSetup: HSC-4, 24 h
The following compounds are shown together with reported log10 CC50 values.
quantityKind: log10 CC50 (log10 of the value in µM)

1) O=C1/C(=C/c2ccc(Cl)cc2)CCC/C1=C\c1ccc([N+](=O)[O-])cc1 : 0.43
2) O=C1CCCC/C1=C\c1ccccc1[N+](=O)[O-] : 1.46
3) Cc1ccc(/C=C2\CCC/C(=C\c3cccc([N+](=O)[O-])c3)C2=O)cc1 : 1.65
4) O=C1/C(=C/c2ccc(Cl)cc2)CCC/C1=C\c1cccc([N+](=O)[O-])c1 : 0.36
5) O=C1/C(=C/c2ccc(F)cc2)CCC/C1=C\c1ccc([N+](=O)[O-])cc1 : 1.18
6) COc1cc(/C=C2\CCC/C(=C\c3ccc([N+](=O)[O-])cc3)C2=O)cc(OC)c1OC : 0.18

---

- testProtocol: Cytotoxicity against human HPLF cells after 24 hrs
- Assay type: cell-based
- experimentalSetup: hplf, 24 h
quantityKind: CC50

1. Cc1ccc(/C=C2\CCC/C(=C\c3ccccc3[N+](=O)[O-])C2=O)cc1 : > 400 µM
2. O=C1/C(=C/c2ccccc2)CCC/C1=C\c1ccccc1[N+](=O)[O-] : 26 µM
3. O=C1/C(=C/c2ccc(Cl)cc2)CCC/C1=C\c1ccccc1[N+](=O)[O-] : > 400 µM

---

The following molecules are shown together with reported CC50 values.
- testProtocol: Cytotoxicity against human HPLF cells after 24 hrs
- Assay type: cell-based
- experimentalSetup: hplf, 24 h
quantityKind: CC50 (µM)

1. O=C1/C(=C/c2ccccc2)CCC/C1=C\c1cccc([N+](=O)[O-])c1 : 18
2. COc1ccc(/C=C2\CCC/C(=C\c3cccc([N+](=O)[O-])c3)C2=O)cc1 : 354
3. O=C1CCCC/C1=C\c1ccccc1[N+](=O)[O-] : 103

---

The following compounds are shown together with reported CC50 at 24 h values.
- testProtocol: Cytotoxicity against human HGF cells after 24 hrs
- Assay type: cell-based
- experimentalSetup: HGF cells
quantityKind: CC50 at 24 h

1) O=C1/C(=C/c2ccc(Cl)cc2)CCC/C1=C\c1ccc([N+](=O)[O-])cc1 : 191 µM
2) COc1cc(/C=C2\CCC/C(=C\c3ccc([N+](=O)[O-])cc3)C2=O)cc(OC)c1OC : 336 µM
3) COc1ccc(/C=C2\CCC/C(=C\c3ccc([N+](=O)[O-])cc3)C2=O)cc1 : > 400 µM

---

The following compounds are shown together with reported CC50 values.
- testProtocol: Cytotoxicity against human HPC cells after 24 hrs
- Format: cell-based
- experimentalSetup: hpc, 24 h
quantityKind: CC50

1) Cc1ccc(/C=C2\CCC/C(=C\c3ccc([N+](=O)[O-])cc3)C2=O)cc1 : 92 µM
2) O=C1/C(=C/c2ccc(Cl)cc2)CCC/C1=C\c1cccc([N+](=O)[O-])c1 : 18 µM
3) COc1cc(OC)c(/C=C2\CCC/C(=C\c3ccc([N+](=O)[O-])cc3)C2=O)c(OC)c1 : > 400 µM
4) O=C1/C(=C/c2ccccc2)CCC/C1=C\c1ccccc1[N+](=O)[O-] : 16 µM
5) Cc1ccc(/C=C2\CCC/C(=C\c3ccccc3[N+](=O)[O-])C2=O)cc1 : > 400 µM

---

- Tested on: HSC-4
- testProtocol: Cytotoxicity against human HSC4 cells after 24 hrs
- Type: functional
- experimentalSetup: HSC-4, 24 h
quantityKind: CC50 (µM)

1) Cc1ccc(/C=C2\CCC/C(=C\c3ccc([N+](=O)[O-])cc3)C2=O)cc1 : 13
2) COc1cc(/C=C2\CCC/C(=C\c3ccccc3[N+](=O)[O-])C2=O)cc(OC)c1OC : 6.5
3) O=C1/C(=C/c2ccccc2)CCC/C1=C\c1ccc([N+](=O)[O-])cc1 : 9.2
4) CN(C)c1ccc(/C=C2\CCC/C(=C\c3cccc([N+](=O)[O-])c3)C2=O)cc1 : 71
5) O=C1/C(=C/c2ccc(F)cc2)CCC/C1=C\c1ccccc1[N+](=O)[O-] : 2.2
6) COc1cc(/C=C2\CCC/C(=C\c3cccc([N+](=O)[O-])c3)C2=O)cc(OC)c1OC : 92
7) O=C1/C(=C/c2ccc(F)cc2)CCC/C1=C\c1cccc([N+](=O)[O-])c1 : 2.5
8) COc1cc(OC)c(OC)cc1/C=C1\CCC/C(=C\c2ccc([N+](=O)[O-])cc2)C1=O : 250
9) Cc1ccc(/C=C2\CCC/C(=C\c3ccccc3[N+](=O)[O-])C2=O)cc1 : 40

---

- testProtocol: Cytotoxicity against human HGF cells after 24 hrs
- Assay type: cell-based
- experimentalSetup: hgf, 24 h
Just a reminder that ties go to no (0): only CC50 strictly below 90 µM counts as yes (1).

1) O=C1/C(=C/c2ccccc2)CCC/C1=C\c1ccccc1[N+](=O)[O-] : no (0)
2) O=C1/C(=C/c2ccc(F)cc2)CCC/C1=C\c1cccc([N+](=O)[O-])c1 : yes (1)
3) O=C1/C(=C/c2ccccc2)CCC/C1=C\c1ccc([N+](=O)[O-])cc1 : no (0)
4) O=C1/C(=C/c2ccc(F)cc2)CCC/C1=C\c1ccc([N+](=O)[O-])cc1 : no (0)
5) O=C1CCCC/C1=C\c1cccc([N+](=O)[O-])c1 : yes (1)
6) Cc1ccc(/C=C2\CCC/C(=C\c3ccc([N+](=O)[O-])cc3)C2=O)cc1 : no (0)
7) COc1cc(OC)c(OC)cc1/C=C1\CCC/C(=C\c2ccc([N+](=O)[O-])cc2)C1=O : no (0)
8) O=C1CCCC/C1=C\c1ccccc1[N+](=O)[O-] : no (0)
9) CN(C)c1ccc(/C=C2\CCC/C(=C\c3ccccc3[N+](=O)[O-])C2=O)cc1 : no (0)
10) O=C1/C(=C/c2ccc(F)cc2)CCC/C1=C\c1ccccc1[N+](=O)[O-] : yes (1)
11) Cc1ccc(/C=C2\CCC/C(=C\c3cccc([N+](=O)[O-])c3)C2=O)cc1 : no (0)
12) COc1cc(/C=C2\CCC/C(=C\c3cccc([N+](=O)[O-])c3)C2=O)cc(OC)c1OC : no (0)
13) COc1ccc(/C=C2\CCC/C(=C\c3cccc([N+](=O)[O-])c3)C2=O)cc1 : no (0)
14) Cc1ccc(/C=C2\CCC/C(=C\c3ccccc3[N+](=O)[O-])C2=O)cc1 : no (0)

---

- testProtocol: Cytotoxicity against human HPC cells after 24 hrs
- Type: cell-based
- experimentalSetup: hpc, 24 h
quantityKind: CC50

1) O=C1CCCC/C1=C\c1cccc([N+](=O)[O-])c1 : 49 µM
2) CN(C)c1ccc(/C=C2\CCC/C(=C\c3ccc([N+](=O)[O-])cc3)C2=O)cc1 : > 400 µM
3) COc1cc(/C=C2\CCC/C(=C\c3ccccc3[N+](=O)[O-])C2=O)cc(OC)c1OC : 35 µM
4) O=C1/C(=C/c2ccc(F)cc2)CCC/C1=C\c1ccccc1[N+](=O)[O-] : 11 µM
5) O=C1CCCC/C1=C\c1ccccc1[N+](=O)[O-] : 117 µM
6) O=C1/C(=C/c2ccc(F)cc2)CCC/C1=C\c1ccc([N+](=O)[O-])cc1 : > 400 µM
7) COc1cc(/C=C2\CCC/C(=C\c3cccc([N+](=O)[O-])c3)C2=O)cc(OC)c1OC : > 400 µM
8) Cc1ccc(/C=C2\CCC/C(=C\c3cccc([N+](=O)[O-])c3)C2=O)cc1 : 192 µM
9) COc1ccc(/C=C2\CCC/C(=C\c3ccccc3[N+](=O)[O-])C2=O)cc1 : > 400 µM
10) O=C1/C(=C/c2ccccc2)CCC/C1=C\c1cccc([N+](=O)[O-])c1 : 14 µM

---

- Tested on: HL-60
- testProtocol: Cytotoxicity against human HL60 cells after 24 hrs
- Format: functional
- experimentalSetup: HL-60, 24 h
The following compounds are shown together with reported CC50 values.
quantityKind: CC50 (µM)

1) O=C1/C(=C/c2ccccc2)CCC/C1=C\c1ccccc1[N+](=O)[O-] : 3.7
2) COc1ccc(/C=C2\CCC/C(=C\c3cccc([N+](=O)[O-])c3)C2=O)cc1 : 7.2
3) COc1cc(/C=C2\CCC/C(=C\c3ccc([N+](=O)[O-])cc3)C2=O)cc(OC)c1OC : 1.1
4) O=C1/C(=C/c2ccccc2)CCC/C1=C\c1ccc([N+](=O)[O-])cc1 : 20
5) O=C1CCCC/C1=C\c1cccc([N+](=O)[O-])c1 : 5.8
6) Cc1ccc(/C=C2\CCC/C(=C\c3ccccc3[N+](=O)[O-])C2=O)cc1 : 11
7) O=C1CCCC/C1=C\c1ccccc1[N+](=O)[O-] : 27
8) COc1cc(OC)c(OC)cc1/C=C1\CCC/C(=C\c2ccc([N+](=O)[O-])cc2)C1=O : 400
9) O=C1/C(=C/c2ccccc2)CCC/C1=C\c1cccc([N+](=O)[O-])c1 : 3
10) COc1cc(OC)c(/C=C2\CCC/C(=C\c3ccc([N+](=O)[O-])cc3)C2=O)c(OC)c1 : 11
11) Cc1ccc(/C=C2\CCC/C(=C\c3ccc([N+](=O)[O-])cc3)C2=O)cc1 : 27
12) O=C1/C(=C/c2ccc(F)cc2)CCC/C1=C\c1ccc([N+](=O)[O-])cc1 : 32
13) COc1cc(/C=C2\CCC/C(=C\c3ccccc3[N+](=O)[O-])C2=O)cc(OC)c1OC : 3
14) COc1cc(/C=C2\CCC/C(=C\c3cccc([N+](=O)[O-])c3)C2=O)cc(OC)c1OC : 59
15) COc1ccc(/C=C2\CCC/C(=C\c3ccccc3[N+](=O)[O-])C2=O)cc1 : 26
16) O=C1/C(=C/c2ccc(F)cc2)CCC/C1=C\c1cccc([N+](=O)[O-])c1 : 1
